System: MS2 coat protein
MEASUREMENT NOTES: apparent KD of MS2 coat protein; designed switch direction (-1 OFF switch, 1 ON switch): 1; higher = weaker reporter binding
RECORDED CONDITIONS: input ligand: microRNA oligo, concentration not stated

POLYMER SEQUENCE	apparent KD of MS2 coat protein
GCUCCAUUACGAGGAUAUGGGAAAGGAAGUGUACCAGAAGGCGUGAAAAGGUACAUGAGGAUCACCCAUGUACCCGGGAGCAAA [PowerStrip SSNG 1.11] (Eterna round: R96, puzzle: Same State NG 1)	19.6 nM
ACCCAAAAUACAUGGGAACAAGCUUUUUAACAUGAGGAUCACCCAUGUACUCGUCUUAUAAGCAGUCGAAAGACUGC [hsa-mir-208a sensor: 113] (Eterna round: R96, puzzle: Sensor for hsa-mir-208a)	14.6 nM
GAAAGGCCUACAGGAUAUACCACAGUCUUGUCGGUAGAAGGGUGGGACAUGAGGAUCACCCAUGUACACUCCCAGAUGGGAGUG [Ergeesis] (Eterna round: R96, puzzle: Same State NG 1)	135 nM
